Reported Anti-bacterial activity (MIC), strain MSSA 15-5 values follow for various molecules
test system: methicillin-sensitive Staphylococcus aureus (MSSA); experiment: MIC, two-fold agar dilution (CLSI), clinical isolates; assay type: cell-based; conditions: clinical isolate MSSA 15-5
Kindly provide the numeric value in µg/mL only, without the unit symbol.

Example molecules with recorded Anti-bacterial activity (MIC), strain MSSA 15-5:
O=CN(O)C[C@@H](CC1CCCC1)C(=O)N1CC2(CC2)C[C@H]1C(=O)Nc1nncs1 = 0.5
CCCC[C@H](CC(=O)NO)C(=O)N1CC2(CC2)C[C@H]1C(=O)Nc1cccnn1 = 8

Next item in the queue.
INPUT: Indicate the recorded Anti-bacterial activity (MIC), strain MSSA 15-5 value for this molecule: CCCC[C@H](CC(=O)NO)C(=O)N1CC2(CC2)C[C@H]1C(=O)Nc1cc(C)on1
OUTPUT: 0.125

###

Reported Anti-bacterial activity (MIC), strain ECO− 15-4 values follow for various molecules
tested on: Escherichia coli (including ESBLs, non-ESBLs); test: MIC, two-fold agar dilution (CLSI), clinical isolates; assay type: cell-based; details: clinical isolate ECO− 15-4

Example molecules with recorded Anti-bacterial activity (MIC), strain ECO− 15-4:
CCCC[C@H](CC(=O)NO)C(=O)N1CC2(CC2)C[C@H]1c1nc2ccccc2n1CCN(C)C = > 32 mg/L
CCCC[C@H](CC(=O)NO)C(=O)N1CC2(CC2)C[C@H]1C(=O)Nc1ccncn1 = > 32 mg/L
CCCC[C@H](CC(=O)NO)C(=O)N1CC2(CCCC2)C[C@H]1C(=O)Nc1cnccn1 = > 32 mg/L

Next item in the queue.
INPUT: Indicate the recorded Anti-bacterial activity (MIC), strain ECO− 15-4 value for this molecule: CCCC[C@H](CC(=O)NO)C(=O)N1CC2(CC2)C[C@H]1C(=O)Nc1cc(C)on1
OUTPUT: > 16 mg/L

###

tested on: Enterococcus faecalis (EFA); experiment: MIC, two-fold agar dilution (CLSI), clinical isolates; type: cell-based; conditions: strain EFA 15-9
recorded.endpoint: Anti-bacterial activity (MIC)

Example molecules with recorded Anti-bacterial activity (MIC):
O=C(C[C@@H](CC1CCCC1)C(=O)N1CC2(CC2)C[C@@H]1c1nc2ccccc2[nH]1)NO = > 32 µg/mL
O=C(C[C@@H](CC1CCCC1)C(=O)N1CC2(CC2)C[C@H]1C(=O)Nc1ncco1)NO = > 32 µg/mL
O=C(C[C@@H](CC1CCCC1)C(=O)N1CC2(CC2)C[C@H]1c1nc2ccccc2[nH]1)NO = > 32 µg/mL
CCCC[C@H](CC(=O)NO)C(=O)N1CC2(CCCC2)C[C@H]1C(=O)Nc1cc(C)on1 = > 16 µg/mL
CCCC[C@H](CC(=O)NO)C(=O)N1CC2(CCCC2)C[C@H]1C(=O)Nc1ccc(F)cn1 = > 32 µg/mL

INPUT: Indicate the recorded Anti-bacterial activity (MIC) value for this molecule: O=C(C[C@@H](CC1CCCC1)C(=O)N1CC2(CC2)C[C@H]1C(=O)Nc1nncs1)NO
OUTPUT: > 32 µg/mL

###

system: Enterococcus faecalis (EFA); experiment: MIC, two-fold agar dilution (CLSI), clinical isolates; format: cell-based; conditions: strain EFA 15-9
recorded.endpoint: MIC (anti-bacterial activity)
Enter the number, and then the unit.

O=CN(O)C[C@@H](CC1CCCC1)C(=O)N1CC2(CC2)C[C@H]1C(=O)Nc1ncccc1F = 8 µg/mL
CCCC[C@H](CN(O)C=O)C(=O)N1CC2(CC2)C[C@H]1C(=O)Nc1cc(C)on1 = 4 µg/mL
CCCC[C@H](CN(O)C=O)C(=O)N1CC2(CC2)C[C@H]1C(=O)Nc1ccncn1 = 4 µg/mL

INPUT: Indicate the recorded MIC (anti-bacterial activity) value for this molecule: CCCC[C@H](CN(O)C=O)C(=O)N1CC2(CC2)C[C@H]1C(=O)Nc1ccno1
OUTPUT: 8 µg/mL

INPUT: Indicate the recorded MIC (anti-bacterial activity) value for this molecule: CCCC[C@H](CN(O)C=O)C(=O)N1CC2(CC2)C[C@H]1C(=O)Nc1ccc(N2CCOCC2)cc1
OUTPUT: 8 µg/mL

INPUT: Indicate the recorded MIC (anti-bacterial activity) value for this molecule: CCCC[C@H](CN(O)C=O)C(=O)N1CC2(CC2)C[C@H]1c1nc2ccccc2n1CCN(C)C
OUTPUT: 32 µg/mL
